These measurements were taken from ChEMBL document CHEMBL1201862.

Biological target: Protein RecA (Mycobacterium tuberculosis, UniProt P9WHJ3)
Assay: Fluorescence Cell-Free Homogeneous Dose Retest to Identify Inhibitors of RecA-Intein Splicing Activity. [Related pubchem assays (depositor defined):AID2097, AID2223, AID489010, AID492950]
Format: functional
Active and inactive are the calls of the source.
Lab note: assign the record to one of active, inactive

// known answers, use as guide
COc1cc(C(=O)CSc2nnc(-c3ccc(O)cc3)n2CC2CCCO2)ccc1NC(C)=O (stereo unspecified): inactive
O=C(NNC(=O)c1ccc([N+](=O)[O-])o1)c1ccccc1: active
O=C(CSCc1cc(O)n[nH]1)Nc1ccc(F)cc1: active
COc1ccc(N(C(=O)CCl)C(C(=O)NCCc2ccccc2)c2cccs2)cc1 (stereo unspecified): active

Which outcome did this test record for the compound Cc1ccc2c(c1)c1c(n2CC(O)CN2CCCCCC2)CCCC1 (stereo unspecified) ?
inactive

Which outcome did this test record for the compound CCOC(=O)c1nn(-c2ccccc2C)c(=O)c2c(N)scc12 ?
active

Which outcome did this test record for the compound NC(=O)[C@H](Cc1cc2ccccc2s1)NC(=O)[C@@H]1CC2(CC(c3cccc(NC(=O)[C@@H]4CCC(=O)N4)c3)=NO2)CN1C(=O)/C=C/c1c(F)cccc1Cl (stereo partly specified) ?
active

Which outcome did this test record for the compound O=C(CCl)Nc1ccccc1C(=O)Nc1ccc2c(c1)OCO2 ?
active

Which outcome did this test record for the compound CC(=O)Nc1ccc(OC(=O)c2ccco2)cc1 ?
active

Which outcome did this test record for the compound COc1ccc(/C=C2/C(=O)N(c3ccccc3)N=C2C)cc1OC ?
active

Which outcome did this test record for the compound CC(=O)N(CCC(Cc1ccccc1)c1ccc2c(c1)OCO2)Cc1ccccc1F (stereo unspecified) ?
active

Which outcome did this test record for the compound CCn1c2ccccc2c2cc(C3C(C#N)=C(N)Oc4[nH]nc(COC)c43)ccc21 (stereo unspecified) ?
active

Which outcome did this test record for the compound CCn1c(Cl)c(C=O)s/c1=N\S(=O)(=O)c1ccccc1 ?
active

###

Biological target: Genome polyprotein (dengue virus type 2, UniProt P29990)
Test: flavivirus cap methylation enzyme inhibition – biochemical, confirmation dose response, primary screen (AID 588689)
Format: functional
Calls of active or inactive are those of the source.
Here, each record is paired with measured IC50 data.

# example entries with known answers
O=C1C(Cl)=C(NCCc2ccccc2)C(=O)c2ccccc21: 9.15 µM (active)
O=C(O)c1[nH]c2ccccc2c1C(c1cc(Br)ccc1O)c1c(C(=O)O)[nH]c2ccccc12: 16 µM (active)
O=C(COc1cccc2ccccc12)Nc1cc(Cl)ccc1C(=O)O: 40.5 µM (active)
O=C(NCc1ccccc1)c1sc(=S)n2c1[nH]c(=O)c1ccccc12: 77 µM (active)
O=C1c2ccccc2C(=O)c2c1cccc2N(CCO)CCO: 28.8 µM (active)

Now for a further molecule.
Provide only the value of recorded IC50 for CCc1ccc(/C=C2/SC(=S)N(CCCC(=O)Nc3ccccc3C(=O)O)C2=O)cc1
31.4 µM (active)

###

Biological target: Dual specificity protein phosphatase 3 (Homo sapiens, UniProt P51452)
Sequence (P51452 whole entry): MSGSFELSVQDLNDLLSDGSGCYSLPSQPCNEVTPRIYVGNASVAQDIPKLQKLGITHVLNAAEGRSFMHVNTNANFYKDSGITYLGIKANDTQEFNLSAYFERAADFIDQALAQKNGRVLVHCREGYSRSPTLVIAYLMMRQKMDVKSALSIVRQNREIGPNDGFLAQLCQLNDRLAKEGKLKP
Assay: VHR phosphatase inhibition, dose response, selectivity assay for STEP inhibitor project, biochemical (AID 602374)
Assay type: functional
Conditions: read-out: IC50_Mean
Active and inactive are the calls of the source.
Test Readout: IC50

# example entries with known answers
Cc1ccc(-n2c(C)nc3oc4ccccc4c(=O)c3c2=O)cc1: 779 nM (active)
CCOc1ccc(C(=S)N2CCN(C)CC2)cc1: 1420 nM (active)
CC(=O)N1CCC(N(CCN2CCOCC2)C(=S)Nc2ccc(C)cc2)CC1: 3440 nM (active)

Provide only the value of recorded IC50 for COc1ccccc1NS(=O)(=O)c1cc(NC(=O)c2sccc2C)ccc1N1CCCC1
163 nM (active)

###

Here, each record is paired with measured IC50 data.
Target: Polyadenylate-binding protein 1 (Homo sapiens, UniProt P11940)
Sequence (P11940 whole entry, the tested form may be a part): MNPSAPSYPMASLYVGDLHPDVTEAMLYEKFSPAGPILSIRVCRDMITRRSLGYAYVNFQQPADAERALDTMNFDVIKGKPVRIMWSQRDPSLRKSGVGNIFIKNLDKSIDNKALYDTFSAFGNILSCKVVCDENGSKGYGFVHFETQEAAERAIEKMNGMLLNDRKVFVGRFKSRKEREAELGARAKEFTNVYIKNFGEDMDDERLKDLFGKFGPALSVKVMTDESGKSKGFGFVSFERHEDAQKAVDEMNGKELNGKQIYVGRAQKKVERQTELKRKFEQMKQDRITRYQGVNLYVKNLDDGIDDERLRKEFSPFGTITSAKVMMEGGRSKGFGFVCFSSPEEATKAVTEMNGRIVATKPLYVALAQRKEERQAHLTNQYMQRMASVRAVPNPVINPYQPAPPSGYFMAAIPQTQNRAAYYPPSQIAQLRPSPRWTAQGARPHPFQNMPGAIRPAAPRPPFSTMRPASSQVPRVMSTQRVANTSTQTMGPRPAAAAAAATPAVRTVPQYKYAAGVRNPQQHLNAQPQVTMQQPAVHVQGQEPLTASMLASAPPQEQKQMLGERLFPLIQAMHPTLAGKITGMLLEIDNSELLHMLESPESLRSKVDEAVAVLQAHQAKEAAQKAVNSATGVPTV
Test: MLLE domain peptide-binding blockers, IC50 – biochemical, fluorescence polarization, FITC-PAM2 peptide, dose response (AID 602259)
Format: functional
Conditions: read-out: IC50_Mean
Activity calls are given as the source filed them.

# example entries with known answers
COc1ccc(C2=NC(=O)/C(=C\c3cc(OC)c(OC)c(OC)c3)O2)cc1: > 66 µM (inactive)
CCCCc1c(O)n(-c2ccccc2OC)c(SCC(=O)Nc2cccc3ccccc23)nc1=O: > 66 µM (inactive)
CCN=C(S)NS(=O)(=O)c1ccc(C)cc1: > 66 µM (inactive)

Provide only the value of recorded IC50 for O=C1C(Cl)=C(NCCc2ccccc2)C(=O)c2ccccc21
> 66 µM (inactive)

Provide only the value of recorded IC50 for CCOc1ccccc1N(C(=O)c1snc(C(N)=O)c1N)C(C(=O)NC1CCCC1)c1cccs1 (configuration not stated)
> 66 µM (inactive)

Provide only the value of recorded IC50 for COc1ccc(NC(=O)CC2Sc3ncnn3C2=O)cc1 (configuration not stated)
> 66 µM (inactive)

Provide only the value of recorded IC50 for O=C(O)c1cc(-c2ccco2)nc2ccccc12
> 66 µM (inactive)

Provide only the value of recorded IC50 for CCN(CC)CCCN1C(=O)CSC1c1ccc([N+](=O)[O-])cc1 (configuration not stated)
> 66 µM (inactive)

Provide only the value of recorded IC50 for CCOC1=C2CN(S(=O)(=O)c3ccc(C)cc3)[C@@H](c3ccccc3)C[C@H]2[C@H]2C(=O)N(c3ccccc3)C(=O)[C@H]2C1
51 µM (inactive)

Provide only the value of recorded IC50 for CN(Cc1ccc2c(c1)CCCN2C)C(=O)[C@H]1O[C@@H](n2ccc(=O)[nH]c2=O)[C@H](O)[C@@H]1O
> 66 µM (inactive)

Provide only the value of recorded IC50 for Cc1ccnc(SC2CC(=O)N(c3ccc([N+](=O)[O-])cc3)C2=O)n1 (configuration not stated)
> 66 µM (inactive)

Provide only the value of recorded IC50 for O=C1c2ccccc2C(=O)c2c1cccc2N(CCO)CCO
47.7 µM (inactive)

###

Biological target: Heat shock factor protein 1 (Mus musculus, UniProt P38532)
Sequence (P38532 whole entry): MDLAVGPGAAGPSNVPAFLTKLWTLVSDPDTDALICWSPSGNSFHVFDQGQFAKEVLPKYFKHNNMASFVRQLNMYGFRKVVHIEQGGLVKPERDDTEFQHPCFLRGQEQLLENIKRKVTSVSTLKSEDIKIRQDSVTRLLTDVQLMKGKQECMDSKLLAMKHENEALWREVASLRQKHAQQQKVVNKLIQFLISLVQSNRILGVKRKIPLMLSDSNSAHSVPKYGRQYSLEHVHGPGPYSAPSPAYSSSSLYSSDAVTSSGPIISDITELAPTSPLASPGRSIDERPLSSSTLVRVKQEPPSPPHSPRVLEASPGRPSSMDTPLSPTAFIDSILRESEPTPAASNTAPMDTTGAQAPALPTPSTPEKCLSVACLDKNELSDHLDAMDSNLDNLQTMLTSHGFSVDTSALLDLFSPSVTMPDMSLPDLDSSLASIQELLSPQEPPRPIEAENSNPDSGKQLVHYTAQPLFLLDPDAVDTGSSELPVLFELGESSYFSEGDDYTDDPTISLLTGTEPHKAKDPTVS
Experiment: enhancement of HSF1-driven luciferase signal – cell-based, NIH3T3, luminescence, dose retest, confirmation (AID 435004);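 further: stress induced by proteasome inhibitor MG132 added 30 min after compound; luciferase reporter driven by HSF1 response element in NIH3T3 cells; actives raise luminescence as potentiators of the MG132 stress response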
Assay type: functional
Calls of active or inactive are those of the source.
Lab note: assign the record to one of active, inactive

// known answers, use as guide
CCOc1ccc(CN(C)CC(O)COC(c2ccc(OC)cc2)c2ccc(OC)cc2)cc1 (configuration not stated): inactive
C=CCSc1nc(-c2ccc(OC)cc2)c(C#N)c(=O)n1CC=C: active
Cc1ccc(/C=C/C(=O)N2CC(C)CC(C)C2)o1 (configuration not stated): active
COC(=O)c1sccc1NC(=O)Nc1cccc(F)c1: active
CCOC(=O)Nc1ccc2c(c1)N(C(=O)CCN1CCOCC1)c1ccccc1[S+]2[O-] (configuration not stated): inactive

Lab note: next compound to report on.
Which outcome did this test record for the compound Cc1cccc(N2C(=O)C(O)=C(C(=O)c3cccs3)C2c2ccc(C(C)C)cc2)n1 (configuration not stated) ?
inactive

###

Test: viability of PTEN-deleted HCT116 cells – cell-based, HCT116 PTEN knockout, dose response (AID 1047);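 further: HCT116 colon tumor cells with PTEN knocked out; cells exposed to compound for 60 hours before readout; potency for loss of cell viability measured by luminescence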
Format: functional
Calls of active or inactive are those of the source.
Here, each record is paired with measured EC50 data.

Cc1ccc(C)c(Oc2cc(NC(=O)CCCn3nc(C)c([N+](=O)[O-])c3C)cc([N+](=O)[O-])c2)c1: 21.1 µM (active)

Provide only the value of recorded EC50 for CC(=O)/C(=N\Nc1ccc(Cl)cc1Cl)Sc1nnc(-c2ccccc2)n1-c1ccccc1
9.61 µM (active)

Provide only the value of recorded EC50 for CCOc1ccc(NCc2nnc(SCC(=O)Nc3nc(-c4ccccc4)cs3)n2-c2ccccc2)cc1
3.65 µM (active)

Provide only the value of recorded EC50 for COc1cc2c(cc1OC)CN(c1nc(CN3CCOCC3)nc3sc4c(c13)CCC(C)C4)CC2 (centres undefined)
9.18 µM (active)

###

Target: Carboxy-terminal domain RNA polymerase II polypeptide A small phosphatase 1 (Homo sapiens, UniProt Q9GZU7)
Sequence (Q9GZU7 whole entry, the tested form may be a part): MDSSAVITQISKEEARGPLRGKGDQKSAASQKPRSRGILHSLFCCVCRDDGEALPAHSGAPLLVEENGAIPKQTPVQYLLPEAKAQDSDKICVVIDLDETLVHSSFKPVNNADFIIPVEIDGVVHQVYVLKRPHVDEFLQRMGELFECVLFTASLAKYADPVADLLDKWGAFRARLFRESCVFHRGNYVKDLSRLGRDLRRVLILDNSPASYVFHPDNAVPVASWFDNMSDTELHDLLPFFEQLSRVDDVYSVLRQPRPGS
Assay: CTDSP1 inhibitors, concentration-response, biochemical, absorbance readout, ultra-high-throughput screen actives (AID 540297)
Format: functional
Active and inactive are the calls of the source.
Test Readout: IC50

# example entries with known answers
C=C(C)C(=O)Nc1cccc(C2=NOC3(C2)C[C@H](C(N)=O)N(C(=O)COc2ccc(Cl)cc2)C3)c1 (stereo partly specified): 3.74 µM (active)
O=[N+]([O-])c1cccc(-c2csc(N/N=C/c3cccc(O)c3)n2)c1: 10.8 µM (active)
O=C(O)Cc1ccc(NC(=O)c2ccc3c(c2)C(=O)N(Cc2ccco2)C3=O)cc1: 3.79 µM (active)
COc1ccc(OCCC(=O)OCC(=O)NCc2ccco2)cc1: 9.12 µM (active)
CCOC(=O)c1c(NC(=O)C2C3C=CC(C3)C2(C)C(=O)O)sc2c1CCCC2 (stereo unspecified): 16.1 µM (active)

Now for a further compound.
Provide only the value of recorded IC50 for O=C(NNC(=O)c1cc2cc3ccccc3nc2s1)c1ccc(F)cc1
4.28 µM (active)
